target: Neu5Ac(a2-6)Gal(b1-4)GlcNAc(b1-2)[Neu5Ac(a2-6)Gal(b1-4)GlcNAc(b1-4)]Man(a1-3)[GlcNAc(b1-4)][Neu5Ac(a2-6)Gal(b1-4)GlcNAc(b1-2)[Neu5Ac(a2-6)Gal(b1-4)GlcNAc(b1-6)]Man(a1-6)]Man(b1-4)GlcNAc(b1-4)GlcNAc; assay: glycan array binding signal (z-score within array); higher = stronger binding; conditions: glycan notation: IUPAC condensed, linker removed
Many of the other results were omitted from the sample, so the strongest signals are more common in it than they were.
Below is a list of entries, each paired with its recorded glycan array binding signal (z-score) value.

Previously resolved entries follow.
CML1 (Coprinopsis cinerea) (protein) MAIFHTGSELFIITRGPGKLTLLTWGGLNNLRSVIGAIPTENTGVTKWAVSFSHNYTRFSFIWEGQGEACYQIGNGLTRSPVGRSWSSSSTIHWGSSTVITEDVTSVVPGAVNRDKVTTAYALPDNL = -0.321
DrGRIFIN (Danio rerio), Q6DGJ1 (protein) MTLRFEASCPDGLCPGWSVILKGETPPEASKFEINFLCDRDDRVAFHFNPRFTESDIICNSYMANRWGQEERCNHFPLGVEEPFQIEIYSDNDHFHVYIDKAKVMQYKHRVEDLKTITKLQVVNDVKISSLEITKKLFY = -0.026
LTL (Lotus tetragonolobus), P19664 (protein) VSFNYTEFKDDGSLILQGDAKIWTDGRLAMPTDPLVNNPKTTRSAGRALYATPVPIWDSATGNVASFVTSFNFLFVIRELKYTPTDGLVFFLAPVGTEIPSGSTGGFLGIFDGSNGFNQFVAVEFDSYHNIWDPKSLRSSHVGIDVNSIMSLKAVNWNRVSGSLEKATIIYDSQTNILSVVMTSQNGQITTIYGTIDLKTVLPEKVSVGFSATTGNPEREKHDIYSWSFTSTLKEPEEQA = -0.15

Would you kindly look at the next entry?
Query: glycan array binding signal (z-score); subject: LSECtin (Homo sapiens), Q6UXB4 (protein) MDTTRYSKWGGSSEEVPGGPWGRWVHWSRRPLFLALAVLVTTVLWAVILSILLSKASTERAALLDGHDLLRTNASKQTAALGALKEEVGDCHSCCSGTQAQLQTTRAELGEAQAKLMEQESALRELRERVTQGLAEAGRGREDVRTELFRALEAVRLQNNSCEPCPTSWLSFEGSCYFFSVPKTTWAAAQDHCADASAHLVIVGGLDEQGFLTRNTRGRGYWLGLRAVRHLGKVQGYQWVDGVSLSFSHWNQGEPNDAWGRENCVMMLHTGLWNDAPCDSEKDGWICEKRHNC
-0.133
